- test details: Oral pharmacokinetic test in mice
- settings: male, C57, mouse, in vivo, 10 mg/kg
metric name: Cmax

>>> result("N#CCC1(n2cc(-c3ncnc4[nH]ccc34)cn2)CCC(F)(F)CC1")
"1480 ng/mL"

----------
- test details: in vivo
- settings: male, C57, mouse, po, 10 mg/kg
metric name: AUC(0-inf) (ng·h/mL)

>>> result("N#CC[C@H](CCC(F)(F)F)n1cc(-c2ncnc3[nH]ccc23)cn1")
4770
>>> result("N#CCC(C1CC(F)(F)C1)n1cc(-c2ncnc3[nH]ccc23)cn1 (stereo not shown)")
1660
>>> result("N#CCC(C1CCC(C(F)(F)F)CC1)n1cc(-c2ncnc3[nH]ccc23)cn1 (stereo not shown)")
2000
>>> result("N#CC[C@@H](CCC(F)(F)F)n1cc(-c2ncnc3[nH]ccc23)cn1")
9240
